- Tested on: Es-2
- assay.explanation: Primary qHTS to identify gynecologic anti-cancer compounds using libraries of approved drugs and bioactive compounds (AID 1345084); also: nearly all actives have a fitted effect of over 55% in size
- test.context: Gynecologic cancer cell panel viability, ATPlite luminescence, 48 h; series mostly up to 57.5 µM
Records with an inconclusive call do not appear. Activity calls are given as the source filed them. Calls follow the shape of the dose curve; as a rule, active = well fitted cell-killing curve with a large enough effect; inconclusive = small, poorly fitted or top-dose-only effect, or effect the other way; inactive = flat fitted curve, though single readings scatter.
The reply should be one of these categories: yes (1) (active), no (0) (inactive)

Solved entries:
molecule	assigned.label
CN(C)c1cc(NC(=O)CNC(C)(C)C)c(O)c2c1C[C@@H]1C[C@H]3[C@H](N(C)C)C(=O)C(C(N)=O)=C(O)[C@@]3(O)C(=O)C1=C2O	no (0)
CC(=O)Oc1cc2c(s1)CCN(C(C(=O)C1CC1)c1ccccc1F)C2 (stereo not given)	no (0)

Dear colleague, could you share the recorded outcome for Cc1ccccc1C(C(=O)NC1CCCCC1)N(C(=O)Cn1ccnc1C)c1cccc(F)c1 (stereo not given) when you have a moment?
no (0)

Fill in: this test's call for Cc1cccc(C)c1OCC(C)N (stereo not given) is ___
no (0)

Please indicate how the test categorized CC(C)(C)Cn1c(N)nc2ccc(-c3[nH]c(C(C)(C)C)nc3-c3ccc(F)cc3)nc21 .
no (0)

Name the outcome recorded for NC(=O)c1cccc2[nH]c(-c3ccc([C@H]4CCCN4)cc3F)nc12 in the assay.
yes (1)

Check the results log: what was the call for COc1cc(Nc2ncc(F)c(Nc3ccc4c(n3)NC(=O)C(C)(C)O4)n2)cc(OC)c1OC ?
no (0)

Which outcome was entered for the molecule O=C1NCC2(CCN(CCc3ccccc3)CC2)O1 in this test?
no (0)

Field: outcome | Entry: CC(=O)N[C@@H](CS)C(=O)O
no (0)

Tell me the assay call for O=C(O)Cc1cccc2ccccc12 please.
no (0)

---

- assay.explanation: Quantitative High-Throughput drug screen in 47 multiple myeloma cell lines against the NCATS MIPE library collection: INA6_PLB cell viability assay (AID 1918965; also: nearly all actives have a fitted effect of over 55% in size)
- test.context: INA6 myeloma viability, CellTiter-Glo ATP luminescence, 48 h; series mostly up to 45.8 µM
Results filed as inconclusive are left out. Calls of active or inactive are those of the source. Calls come from the whole dose curve; as a rule, active = well fitted cell-killing curve with a large enough effect; inconclusive = small, poorly fitted or top-dose-only effect, or effect the other way; inactive = no such curve, though single readings can be large or run the other way.
Can you answer with just one of these options? active, inactive

The following compounds have reported results that may help.
compound	assigned.label
NC(CO)(CO)CCc1ccc(Sc2cccc(OCc3ccccc3)c2)cc1Cl	active
CC1CCC(C(=O)N(c2cc(C#CC(C)(C)C)sc2C(=O)O)C2CCC(O)CC2)CC1 (centres undefined)	active

Outcome? CCCCCN(C)CCC(O)(P(=O)(O)O)P(=O)(O)O
inactive

# lookup: test call for Cc1cccc(Nc2nc(-c3ccncc3)cs2)c1
active

What outcome does the record of this test show for O=C(O)c1c(Cl)c(Cl)c(Cl)c(Cl)c1-c1c2cc(I)c(=O)c(I)c-2oc2c(I)c(O)c(I)cc12 ?
active

Please indicate how the test categorized C=C1C(=O)[C@@]23C(CC[C@@H]1[C@H]2O)[C@@]12CO[C@]3(O)[C@@H](O)[C@@H]1C(C)(C)CC[C@@H]2O (some centres undefined) .
active

Per the assay record, what outcome was assigned to CCOC1OC(=O)C[C@H]1NC(=O)[C@@H]1CCCN1C(=O)[C@@H](NC(=O)c1ccc(N)c(Cl)c1)C(C)(C)C (some centres undefined) ?
inactive

Lab log entry: O=C(Nc1c(Cl)cncc1Cl)c1ccc(OC(F)F)c(OCC2CC2)c1 — outcome as called in the assay?
active

Hey, what did the test say about NC(=O)c1cccc2[nH]c(-c3ccc([C@H]4CCCN4)cc3F)nc12 ?
active

---

- assay.explanation: Cell Viability - Mesenchymal (AID 546);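 also: cells exposed to compound for 40 hours before reading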
- test.context: mesenchymal cells viability, qHTS
Inconclusive results are not listed. Calls of active or inactive are those of the source. Calls come from the whole dose curve; as a rule, active = well fitted cell-killing curve with a large enough effect; inconclusive = small, poorly fitted or top-dose-only effect; inactive = flat fitted curve, though single readings scatter.
Valid outcomes are listed here; reply with one: 1 (yes) = active, 0 (no) = inactive

These recorded examples may help you get a feel for the data.
compound	assigned.label
O=C(O)Cc1cccc2ccccc12	0 (no)
CCn1cc(C(=O)O)c(=O)c2ccc(C)nc21	0 (no)
CCCCC1C(=O)N(c2ccccc2)N(c2ccccc2)C1=O	0 (no)
CC(=O)O[C@]1(C(C)=O)CC[C@H]2[C@@H]3C=C(Cl)C4=CC(=O)[C@@H]5C[C@@H]5[C@]4(C)[C@H]3CC[C@@]21C	0 (no)
CC1=C(/C=C/C(C)=C/C=C/C(C)=C/C(=O)Nc2ccc(O)cc2)C(C)(C)CCC1	1 (yes)
O=C1NC(=O)C(c2ccccc2)(c2ccccc2)N1	0 (no)
O=c1c(-c2ccc(O)cc2)coc2cc(O)ccc12	0 (no)

What was the test verdict on CN(C)CCC(c1ccccc1)c1ccccn1 (stereo not drawn) ?
0 (no)

---

- assay.explanation: qHTS of pediatric cancer cell lines to identify multiple opportunities for drug repurposing: Primary screen for LAN-5 cells (AID 1347100); also: potency is read from the fitted curve at half-maximal effect
- test.context: LAN-5 neuroblastoma viability, CellTiter-Glo luminescence, 48 h; series mostly up to 46 µM
Records with an inconclusive call do not appear. The source made the active and inactive calls. Calls follow the shape of the dose curve; as a rule, active = well fitted cell-killing curve with a large enough effect; inconclusive = small, poorly fitted or top-dose-only effect; inactive = no such curve, though single readings can be large or run the other way.
property: Potency

Below, 6 compounds whose answers are already recorded.
compound	property	endpoint.value
CN(C)CCC(c1ccccc1)c1ccccn1 (stereo not given)	Potency	inactive
CC[C@]1(O)C[C@@H]2CN(CCc3c([nH]c4ccccc34)[C@@](C(=O)OC)(c3cc4c(cc3OC)N(C)[C@H]3[C@@](O)(C(=O)OC)[C@H](OC(C)=O)[C@]5(CC)C=CCN6CC[C@]43[C@@H]65)C2)C1	Potency	133 nM (active)
O=C(O)c1cc(O)c2c(c1)C(=O)c1cccc(O)c1C2=O	Potency	inactive
CCOC1OC(=O)C[C@H]1NC(=O)[C@@H]1CCCN1C(=O)[C@@H](NC(=O)c1ccc(N)c(Cl)c1)C(C)(C)C (stereo not given in full)	Potency	833 nM (active)
COc1cccc([C@@H](C)NCCCc2ccccc2Cl)c1	Potency	inactive
CC(=NNC(=S)N1CCC1)c1ccccn1	Potency	935 nM (active)

Potency for Cc1nc(N)sc1-c1ccnc(Nc2ccc(N3CCOCC3)cc2)n1 ?
332 nM (active)

Query (compound): O=c1c(-c2ccc(O)cc2)coc2cc(O[C@@H]3O[C@H](CO)[C@H](O)[C@H](O)[C@H]3O)ccc12 ; field requested: Potency
inactive

Any idea what Potency was measured for COc1ccc2c3c1OC1C[C@@H](O)C=C[C@@]31CCN(C)C2 (stereo not given in full) ?
inactive

Consider the compound shown here: COC(=O)N[C@H](C(=O)N1CCC[C@@H]1c1ncc(-c2ccc(-c3ccc(-c4cnc([C@@H]5CCCN5C(=O)[C@@H](NC(=O)OC)C(C)C)[nH]4)cc3)cc2)[nH]1)C(C)C What is its recorded Potency?
26400 nM (active)

---

- assay.explanation: Quantitative High-Throughput drug screen in 47 multiple myeloma cell lines against the NCATS MIPE library collection: JIM1_ECACC cell viability assay (AID 1918964)
- test.context: JIM1 myeloma viability, CellTiter-Glo ATP luminescence, 48 h; series mostly up to 45.8 µM
Records with an inconclusive call do not appear. Calls of active or inactive are those of the source. Calls come from the whole dose curve; as a rule, active = well fitted cell-killing curve with a large enough effect; inconclusive = small, poorly fitted or top-dose-only effect, or effect the other way; inactive = no such curve, though single readings can be large or run the other way.
Choose the fitting class; nothing outside active, inactive is accepted.

Example entries begin here.
compound	assigned.label
O=C1C[C@@H](c2ccc(O)cc2)Oc2cc(O)cc(O)c21	inactive
CS(=O)c1ccc(-c2nc(-c3ccc(F)cc3)c(-c3ccncc3)[nH]2)cc1 (centres undefined)	active
COc1ccc(-c2cc(=O)c3c(O)cc(O)cc3o2)cc1O	active

Fill in: this test's call for NC[C@@H]1O[C@@H](O[C@H]2[C@@H](O)[C@H](O[C@@H]3[C@@H](O)[C@@H](N)C[C@H](N)[C@H]3O[C@H]3O[C@H](CN)[C@@H](O)[C@@H](O)[C@H]3N)O[C@H]2CO)[C@H](N)[C@@H](O)[C@@H]1O is ___
inactive

What call does the record list for COc1ccc(Cc2nccc3cc(OC)c(OC)cc23)cc1OC ?
active

Record lookup: outcome of this test for COc1ccc2c3c1OC1C[C@@H](O)C=C[C@@]31CCN(C)C2 (some centres undefined) ?
inactive

What classification did O=c1c(-c2ccc(O)cc2)coc2cc(O)ccc12 end up with in this test?
inactive

What was the test verdict on N#CC(=C(N)Sc1ccccc1N)C(C#N)=C(N)Sc1ccccc1N ?
active

Check the results log: what was the call for O=c1[nH]cnc2c1ncn2[C@H]1CC[C@@H](CO)O1 ?
inactive

---

- assay.explanation: qHTS of pediatric cancer cell lines to identify multiple opportunities for drug repurposing: Primary screen for MG 63 (6-TG R) cells (AID 1347105); also: nearly all actives have a fitted effect of over 50% in size; also: potency is read from the fitted curve at half-maximal effect
- test.context: MG 63 (6-TG R) viability, CellTiter-Glo, 48 h; series mostly up to 46 µM
- Method: Drug repurposing or repositioning has been offered as a strategy for drug development in oncology programs. This approach has special potential for childhood cancers and other rare or orphan diseases, where the expected return on new drug development has been a disincentive to pharmaceuticals. […] We employed a titration-based paradigm (quantitative high-throughput screening or qHTS), where all compounds were tested at multiple concentrations for their effect on cell viability. […]
Records with an inconclusive call do not appear. Activity calls are given as the source filed them. Calls come from the whole dose curve; as a rule, active = well fitted cell-killing curve with a large enough effect; inconclusive = small, poorly fitted or top-dose-only effect; inactive = no such curve, though single readings can be large or run the other way.
property: Potency

Sample answers from the record:
compound	endpoint.value
CC(C)C[C@H](CC(=O)O)C(=O)N[C@@H](Cc1c[nH]c2ccccc12)C(=O)N[C@@H](C)c1ccccc1	inactive
O=C(N[C@@H](c1ccccc1)[C@@H]1CCCCN1)c1cccc(C(F)(F)F)c1Cl	inactive
NS(=O)(=O)c1cccc2c1C(=O)c1cccc(O)c1C2=O	2.35 µM (active)
CC/C(=C(\c1ccccc1)c1ccc(OCCN(C)C)cc1)c1ccccc1	inactive

# evaluate next
Using the record for Cn1c(N2CCCCS2(=O)=O)nc(C(=O)NCc2ccc(F)cc2)c(O)c1=O , report its Potency.
inactive
